species on record: Rattus norvegicus; assay: DrugMatrix - Regimen: Daily Repeat; type: toxicity, organism-based, Sprague-Dawley; design: regimen Daily Repeat, gender Male, age 6-8 weeks; settings: in vivo, po, 0 mg/kg, 120 h, tissue Plasma, route oral GAVAGE, dose level Control, time 5 day, vehicle .5 % CMC
Classification scheme (CREATININE): low range (below 0.2 mg/dL), mid range (0.2 mg/dL to below 0.5 mg/dL), high range (0.5 mg/dL or more)

Q. Which class is correct for the following molecule? COc1cc(/C=C/C(=O)O)ccc1O [FERULATE]
A. mid range

Q. Which class is correct for the following molecule? CN(C)CCC=C1c2ccccc2COc2ccccc21 [DOXEPIN]
A. high range

Q. Which class is correct for the following molecule? CC(C)NCC(O)COc1ccc(CC(N)=O)cc1 (stereo not drawn)
A. high range

Q. Which class is correct for the following molecule? CC(=O)Nc1ccc2c(c1)Cc1ccccc1-2
A. low range

Q. Which class is correct for the following molecule? CCN1CCN(c2cc3c(cc2F)c(=O)c(C(=O)O)cn3C2CC2)CC1
A. mid range

Q. Which class is correct for the following molecule? NC(=O)NC(=O)Cc1ccccc1 [PHENACEMIDE]
A. mid range

Q. Which class is correct for the following molecule? CC(C)(C#N)c1cc(Cn2cncn2)cc(C(C)(C)C#N)c1
A. low range

Q. Which class is correct for the following molecule? NCC(CC(=O)O)c1ccc(Cl)cc1 (stereo not drawn)
A. low range

Q. Which class is correct for the following molecule? COc1ccc(Cl)cc1C(=O)NCCc1ccc(S(=O)(=O)NC(=O)NC2CCCCC2)cc1 [GLYBURIDE]
A. high range

Q. Which class is correct for the following molecule? NC(=O)CN1CCCC1=O
A. low range

Q. Which class is correct for the following molecule? CC(C)Cc1ccc([C@H](C)C(=O)O)cc1
A. high range

Q. Which class is correct for the following molecule? CCN(CC)CCNC(=O)c1cc(Cl)c(N)cc1OC [METOCLOPRAMIDE]
A. mid range

Q. Which class is correct for the following molecule? O=C(O)CCc1nc(-c2ccccc2)c(-c2ccccc2)o1
A. mid range

###

species on record: Rattus norvegicus; experiment: DrugMatrix - Regimen: Daily Repeat; assay type: toxicity, organism-based, Sprague-Dawley; design: regimen Daily Repeat, gender Male, age 6-8 weeks; conditions: in vivo, po, 0 mg/kg, 72 h, tissue Plasma, route oral GAVAGE, dose level Control, time 3 day, […]
recorded_endpoint: ALANINE AMINOTRANSFERASE (u/L)
Express it in u/L; write the number only.

Q. Item COc1ccccc1OCCNCC(O)COc1cccc2[nH]c3ccccc3c12 (stereo not drawn) : provide ALANINE AMINOTRANSFERASE
A. 77

Q. Item c1ccc2c(c1)Nc1ccccc1S2 : provide ALANINE AMINOTRANSFERASE
A. 69.67

Q. Item CCC(C)(C)C(=O)O[C@H]1C[C@@H](C)C=C2C=C[C@H](C)[C@H](CC[C@@H]3C[C@@H](O)CC(=O)O3)[C@H]21 : provide ALANINE AMINOTRANSFERASE
A. 67.5

###

Please provide measured CREATINE PHOSPHOKINASE for the entries that follow.
species: Rattus norvegicus; assay: DrugMatrix - Regimen: Daily Repeat; format: toxicity, organism-based, Sprague-Dawley; parameters: regimen Daily Repeat, gender Male, age 6-8 weeks; details: in vivo, po, 0 mg/kg, 120 h, tissue Plasma, route oral GAVAGE, dose level Control, time 5 day, vehicle .5 % CMC
Express it in u/L; write the number only.

Q. Item CC(C)NCC(O)COc1ccc(CC(N)=O)cc1 (stereo unspecified) [ATENOLOL] : provide CREATINE PHOSPHOKINASE
A. 120.33

Q. Item NCC(CC(=O)O)c1ccc(Cl)cc1 (stereo unspecified) [BACLOFEN] : provide CREATINE PHOSPHOKINASE
A. 417.5

Q. Item COc1ccc(Cl)cc1C(=O)NCCc1ccc(S(=O)(=O)NC(=O)NC2CCCCC2)cc1 [GLYBURIDE] : provide CREATINE PHOSPHOKINASE
A. 130

Q. Item COc1cc(NC(C)CCCN)c2ncccc2c1 (stereo unspecified) [PRIMAQUINE] : provide CREATINE PHOSPHOKINASE
A. 161.17

Q. Item CN(C)CCOC(c1ccccc1)c1ccccc1.Cn1c(=O)c2[nH]c(Cl)nc2n(C)c1=O [DIMENHYDRINATE] : provide CREATINE PHOSPHOKINASE
A. 227.67

Q. Item Cl.NC[C@H]1CC[C@H](C(=O)Oc2ccc(CCC(=O)O)cc2)CC1 [CETRAXATE HYDROCHLORIDE] : provide CREATINE PHOSPHOKINASE
A. 284.5

Q. Item CCN1CCN(c2cc3c(cc2F)c(=O)c(C(=O)O)cn3C2CC2)CC1 [ENROFLOXACIN] : provide CREATINE PHOSPHOKINASE
A. 110.67

Q. Item CCN1C[C@]2(COC)[C@H](O)C[C@H](OC)[C@@]34[C@@H]5C[C@@]6(O)[C@H](OC(=O)c7ccccc7)[C@@H]5[C@@](OC(C)=O)([C@@H]([C@H](OC)[C@H]23)[C@@H]14)[C@@H](O)[C@@H]6OC [ACONITINE] : provide CREATINE PHOSPHOKINASE
A. 148.33

Q. Item COc1cc(/C=C/C(=O)O)ccc1O [FERULATE] : provide CREATINE PHOSPHOKINASE
A. 284.5

Q. Item NC(=O)CN1CCCC1=O : provide CREATINE PHOSPHOKINASE
A. 628.17

Q. Item CC(=O)Nc1ccc2c(c1)Cc1ccccc1-2 [2-ACETYLAMINOFLUORENE] : provide CREATINE PHOSPHOKINASE
A. 417.5

###

organism: Rattus norvegicus; assay: DrugMatrix - Regimen: Daily Repeat; assay type: toxicity, organism-based, Sprague-Dawley; set-up: regimen Daily Repeat, gender Male, age 6-8 weeks; details: in vivo, po, 0 mg/kg, 120 h, tissue Blood, route oral GAVAGE, dose level Control, time 5 day, vehicle .5 % CMC
Please provide measured LYMPHOCYTE for the entries that follow.
Express it in %; write the number only.

Q. Item CCOc1cc(N)c(Cl)cc1C(=O)NCC1CN(Cc2ccc(F)cc2)CCO1 (stereo not drawn) [MOSAPRIDE] : provide LYMPHOCYTE
A. 90.83

Q. Item COc1cc(/C=C/C(=O)O)ccc1O [FERULATE] : provide LYMPHOCYTE
A. 89

Q. Item Cl.NC[C@H]1CC[C@H](C(=O)Oc2ccc(CCC(=O)O)cc2)CC1 [CETRAXATE HYDROCHLORIDE] : provide LYMPHOCYTE
A. 89

###

species: Rattus norvegicus; experiment: DrugMatrix - Regimen: Daily Repeat; type: toxicity, organism-based, Sprague-Dawley; parameters: regimen Daily Repeat, gender Male, age 6-8 weeks; conditions: in vivo, po, 0 mg/kg, 72 h, tissue Blood, route oral GAVAGE, dose level Control, time 3 day, vehicle .5 % CMC
recorded_endpoint: LEUKOCYTE COUNT (x10E3/uL)
Express it in x10E3/uL; write the number only.

Q. Item CCN1CCN(c2cc3c(cc2F)c(=O)c(C(=O)O)cn3C2CC2)CC1 [ENROFLOXACIN] : provide LEUKOCYTE COUNT
A. 13

Q. Item O=C(O)CCc1nc(-c2ccccc2)c(-c2ccccc2)o1 [OXAPROZIN] : provide LEUKOCYTE COUNT
A. 13.4

Q. Item COc1cc(NC(C)CCCN)c2ncccc2c1 (stereo not drawn) [PRIMAQUINE] : provide LEUKOCYTE COUNT
A. 11.54

###

Please provide measured BLOOD UREA NITROGEN for the entries that follow.
species: Rattus norvegicus; assay: DrugMatrix - Regimen: Daily Repeat; type: toxicity, organism-based, Sprague-Dawley; parameters: regimen Daily Repeat, gender Male, age 6-8 weeks; details: in vivo, po, 0 mg/kg, 120 h, tissue Plasma, route oral GAVAGE, dose level Control, time 5 day, vehicle .5 % CMC
Express it in mg/dL; write the number only.

Q. Item COc1cc(/C=C/C(=O)O)ccc1O [FERULATE] : provide BLOOD UREA NITROGEN
A. 18.17

Q. Item Nc1ccc(C(=O)O)c(O)c1 [AMINOSALICYLIC ACID] : provide BLOOD UREA NITROGEN
A. 16.33

Q. Item O=C(O)CCc1nc(-c2ccccc2)c(-c2ccccc2)o1 [OXAPROZIN] : provide BLOOD UREA NITROGEN
A. 16.67

Q. Item CCN1C[C@]2(COC)[C@H](O)C[C@H](OC)[C@@]34[C@@H]5C[C@@]6(O)[C@H](OC(=O)c7ccccc7)[C@@H]5[C@@](OC(C)=O)([C@@H]([C@H](OC)[C@H]23)[C@@H]14)[C@@H](O)[C@@H]6OC [ACONITINE] : provide BLOOD UREA NITROGEN
A. 14.17

Q. Item CC(C)(C#N)c1cc(Cn2cncn2)cc(C(C)(C)C#N)c1 [ANASTROZOLE] : provide BLOOD UREA NITROGEN
A. 15.5

Q. Item COc1ccc(Cl)cc1C(=O)NCCc1ccc(S(=O)(=O)NC(=O)NC2CCCCC2)cc1 [GLYBURIDE] : provide BLOOD UREA NITROGEN
A. 16.33

Q. Item Cl.NC[C@H]1CC[C@H](C(=O)Oc2ccc(CCC(=O)O)cc2)CC1 [CETRAXATE HYDROCHLORIDE] : provide BLOOD UREA NITROGEN
A. 18.17

Q. Item CC(C)NCC(O)COc1ccc(CC(N)=O)cc1 (configuration not stated) [ATENOLOL] : provide BLOOD UREA NITROGEN
A. 16

Q. Item CN(C)CCC=C1c2ccccc2COc2ccccc21 [DOXEPIN] : provide BLOOD UREA NITROGEN
A. 16

Q. Item CCN1CCCC1CNC(=O)c1cc(S(N)(=O)=O)ccc1OC (configuration not stated) [SULPIRIDE] : provide BLOOD UREA NITROGEN
A. 16.67

Q. Item CCOc1cc(N)c(Cl)cc1C(=O)NCC1CN(Cc2ccc(F)cc2)CCO1 (configuration not stated) [MOSAPRIDE] : provide BLOOD UREA NITROGEN
A. 18

Q. Item COc1cc(NC(C)CCCN)c2ncccc2c1 (configuration not stated) [PRIMAQUINE] : provide BLOOD UREA NITROGEN
A. 18.67
